assay: in vitro; settings: human, hela cells, % viability
viability at 28.5 h, 10 µM vs 90%: less than gives criterion met; not less than gives criterion not met.

{"molecule": "CN1CCCC(C(=O)Nc2cnc(-c3cccc(C(F)(F)F)c3)c(-c3cccnc3)n2)C1 (stereo not drawn) [CBK036787]", "group": "criterion met"}
{"molecule": "CC1(C)Cc2nc3[nH]nc(N)c3cc2CO1 [CBK261476]", "group": "criterion not met"}
{"molecule": "CN1CCC(=NNC(=O)c2ccc(CN(c3ccccc3)S(C)(=O)=O)cc2)CC1 [CBK262728]", "group": "criterion not met"}
{"molecule": "O=C(O)CCC(=O)N1CCN(C2CCCCC2)CC1 [CBK286918]", "group": "criterion not met"}
{"molecule": "COc1ccc2c(c1)C1(CC(=O)N(CCc3scnc3C)C1=O)C(=O)N2Cc1ccccc1 (stereo not drawn) [CBK075240]", "group": "criterion not met"}
{"molecule": "CC(C)N(CCOc1nccnc1-c1cnn(C)c1)C(C)C [CBK107084]", "group": "criterion not met"}
{"molecule": "CS(=O)(=O)N1CC2(CCN(Cc3cccc(C(F)(F)F)c3)CC2)c2ccccc21 [CBK126670]", "group": "criterion not met"}
{"molecule": "N#Cc1cccc(OCC(=O)NCC2(N3CCOCC3)CCSC2)c1 (stereo not drawn) [CBK305685]", "group": "criterion met"}
{"molecule": "COC(=O)c1c(C)[nH]c(C(=O)N2CCCC2c2cccnc2)c1C (stereo not drawn) [CBK296639]", "group": "criterion not met"}
{"molecule": "Cc1cccc(/C(C#N)=C\\c2cn(CC(=O)O)c3ccccc23)c1 [CBK269457]", "group": "criterion not met"}
{"molecule": "O=S(=O)(NCc1cccnc1)N1CCOCC1 [CBK269945]", "group": "criterion met"}
{"molecule": "N#Cc1cccc(C(=O)N2CCC3(CCN(C(=O)c4cc(F)c(F)cc4F)C3)C2)c1 (stereo not drawn) [CBK131387]", "group": "criterion not met"}
{"molecule": "Cc1cc(CNC(=O)/C=C/c2ccc(C(C)C)cc2)no1 [CBK149614]", "group": "criterion not met"}
{"molecule": "Oc1ccc(-n2cc(-c3ccccc3C(F)(F)F)nn2)cc1 [CBK112971]", "group": "criterion not met"}
{"molecule": "O=C(Nc1cc(-c2nc3ncccc3o2)ccc1Cl)c1ccc2c(c1)OCCO2 [CBK264105]", "group": "criterion not met"}
{"molecule": "CN1CCC(N(C)C(=O)NCCc2c[nH]c3ccccc23)C1 (stereo not drawn) [CBK156012]", "group": "criterion met"}
{"molecule": "Cc1cc(NC(=O)C(=O)NCCN2CCN(S(C)(=O)=O)CC2)ccc1Br [CBK265401]", "group": "criterion met"}
{"molecule": "COc1cccc(NC(=O)CCn2ncc(Cl)c2C)c1 [CBK288012]", "group": "criterion not met"}
{"molecule": "Cc1nc2c(c(=O)[nH]1)CN(Cc1ccc(F)cc1)CC2 [CBK284009]", "group": "criterion met"}
{"molecule": "O=C(COc1ccccc1)N1CCC(Oc2nccnc2OCc2ccc(Cl)c(Cl)c2)CC1 [CBK160718]", "group": "criterion not met"}
{"molecule": "O=C(CN1CCCCC1)NCCNc1ccc([N+](=O)[O-])cc1Cl [CBK264922]", "group": "criterion not met"}
{"molecule": "CCSc1nnc2c(n1)OC(C)Nc1ccccc1-2 (stereo not drawn) [CBK025684]", "group": "criterion not met"}
{"molecule": "Cn1ccnc1CN1CCC2(C/C=C/Cc3ccccc3OCC(=O)NCCNC2=O)CC1 [CBK292180]", "group": "criterion not met"}
{"molecule": "Cc1cc(S(=O)(=O)NCc2cc(F)c(F)c(F)c2)c(C)cc1Cl [CBK043813]", "group": "criterion met"}
{"molecule": "O=C(O)c1ccc(NC(=O)c2cn(-c3ccccc3)nc2-c2ccccc2)cc1 [CBK296120]", "group": "criterion not met"}
{"molecule": "COCCNC(=O)c1ccc(-c2ccccc2OC)nc1NCC1CC1 [CBK106246]", "group": "criterion not met"}
{"molecule": "CN(C)c1ccc(-c2cc(NCCc3ccncc3)ncn2)cc1 [CBK090849]", "group": "criterion not met"}
{"molecule": "CCCC(C(=O)NC(C)(C)CN1CCCCC1)n1nc(C)cc1C (stereo not drawn) [CBK282061]", "group": "criterion not met"}
{"molecule": "Cc1ccc(CCC(=O)N2CCCCC2c2nc3ccccc3[nH]2)o1 (stereo not drawn) [CBK282316]", "group": "criterion met"}
